# tgt: Myo3, P36006
# method_summary: SPOT array
# recorded_conditions: median of control spots 468
reported_metric: SPOT intensity

A. GKFIPSRPAPKPPSS
B. IKTRSVPKIPSIESV
q: Kindly identify the item with the lower SPOT intensity figure among these two: A and B Let me know the label of the one you choose.
a: B

1. AGKRRLPLVRFKASD
2. ISNFVPPNLPMRRFK
q: Short answer wanted: higher SPOT intensity, 1 or 2 ? Let me know the label of the one you choose.
a: 2
(2: 59, 1: 22)
